Reference source: ChEMBL document CHEMBL1156893

Below: a set of entries, each annotated with reported IC90.
# Test system: Plasmodium falciparum
# assay.explanation: Antimalarial activity against chloroquine-resistant and mefloquine-sensitive Plasmodium falciparum W2
# Format: functional, organism-based
Numeric answer only, unit µg/mL assumed.

OC(Cn1cnc2ccccc21)c1cc(C(F)(F)F)nc2c(C(F)(F)F)cccc12 (stereo unspecified) = 0.41

Query (molecule): CN(C)CC(O)c1cc(C(F)(F)F)nc2c(C(F)(F)F)cccc12 (stereo unspecified) ; field requested: IC90
0.069

Same thing, different molecule: CCCCCCNCC(O)c1cc(C(F)(F)F)nc2c(C(F)(F)F)cccc12 (stereo unspecified)
0.372

Entry to check: OC(CNCCNCc1ccccc1)c1cc(C(F)(F)F)nc2c(C(F)(F)F)cccc12 (stereo unspecified)
0.029

Item: COCCNCC(O)c1cc(C(F)(F)F)nc2c(C(F)(F)F)cccc12 (stereo unspecified)
0.059

Same read-out for NCC(O)c1cc(C(F)(F)F)nc2c(C(F)(F)F)cccc12 (stereo unspecified) ?
0.4

// same read-out, input: CCCCN(CCCC)CC(O)c1cc(C(F)(F)F)nc2c(C(F)(F)F)cccc12 (stereo unspecified)
0.011

Check CNCC(O)c1cc(C(F)(F)F)nc2c(C(F)(F)F)cccc12 (stereo unspecified) too.
0.045

// query: CCc1nc(C)cn1CC(O)c1cc(C(F)(F)F)nc2c(C(F)(F)F)cccc12 (stereo unspecified)
0.043

Item: OC(CNc1ccccc1)c1cc(C(F)(F)F)nc2c(C(F)(F)F)cccc12 (stereo unspecified)
0.377

Let us now turn to CSCCCNCC(O)c1cc(C(F)(F)F)nc2c(C(F)(F)F)cccc12 (stereo unspecified)
0.036

Note, next up: CCCCNCC(O)c1cc(C(F)(F)F)nc2c(C(F)(F)F)cccc12 (stereo unspecified)
0.001

###

CC50 reference
# assay.explanation: Cytotoxicity against mouse RAW264.7 cells
# Assay type: cell-based
# condition.description: read-out: LC50 (the source's name)
Kindly provide the numeric value in µg/mL only, without the unit symbol.

Some solved cases for reference:
OC(CNCC(F)(F)F)c1cc(C(F)(F)F)nc2c(C(F)(F)F)cccc12 (stereo unspecified) = 32.1
NCC(O)c1cc(C(F)(F)F)nc2c(C(F)(F)F)cccc12 (stereo unspecified) = 8.07
COCCCNCC(O)c1cc(C(F)(F)F)nc2c(C(F)(F)F)cccc12 (stereo unspecified) = 25.2
CN(C)CC(O)c1cc(C(F)(F)F)nc2c(C(F)(F)F)cccc12 (stereo unspecified) = 24.6
CCCc1nccn1CC(O)c1cc(C(F)(F)F)nc2c(C(F)(F)F)cccc12 (stereo unspecified) = 50.1

Here is the next item to consider.
// returns reported CC50 for input CNCC(O)c1cc(C(F)(F)F)nc2c(C(F)(F)F)cccc12 (stereo unspecified)
13.7

###

Each item that follows carries a reported IC90.
# Tested on: Plasmodium falciparum
# assay.explanation: Antimalarial activity against chloroquine-resistant and mefloquine-sensitive Plasmodium falciparum W2
# Assay type: functional, organism-based
Write the answer as a number in µg/mL, unit excluded.

Use the examples below as a reference point.
COCCCNCC(O)c1cc(C(F)(F)F)nc2c(C(F)(F)F)cccc12 (stereo not given) = 0.051
OC(CNCc1ccccc1)c1cc(C(F)(F)F)nc2c(C(F)(F)F)cccc12 (stereo not given) = 0.067
CCN(CC)CC(O)c1cc(C(F)(F)F)nc2c(C(F)(F)F)cccc12 (stereo not given) = 0.026
Cc1nc2ccccc2n1CC(O)c1cc(C(F)(F)F)nc2c(C(F)(F)F)cccc12 (stereo not given) = 0.22

Now examine the next entry.
// lookup IC90 for OCCNCC(O)c1cc(C(F)(F)F)nc2c(C(F)(F)F)cccc12 (stereo not given)
0.49
